Assign AC50 to each entry below.
test_system: Cytochrome P450 2C9 (Homo sapiens, UniProt P11712)
Sequence (P11712 whole entry): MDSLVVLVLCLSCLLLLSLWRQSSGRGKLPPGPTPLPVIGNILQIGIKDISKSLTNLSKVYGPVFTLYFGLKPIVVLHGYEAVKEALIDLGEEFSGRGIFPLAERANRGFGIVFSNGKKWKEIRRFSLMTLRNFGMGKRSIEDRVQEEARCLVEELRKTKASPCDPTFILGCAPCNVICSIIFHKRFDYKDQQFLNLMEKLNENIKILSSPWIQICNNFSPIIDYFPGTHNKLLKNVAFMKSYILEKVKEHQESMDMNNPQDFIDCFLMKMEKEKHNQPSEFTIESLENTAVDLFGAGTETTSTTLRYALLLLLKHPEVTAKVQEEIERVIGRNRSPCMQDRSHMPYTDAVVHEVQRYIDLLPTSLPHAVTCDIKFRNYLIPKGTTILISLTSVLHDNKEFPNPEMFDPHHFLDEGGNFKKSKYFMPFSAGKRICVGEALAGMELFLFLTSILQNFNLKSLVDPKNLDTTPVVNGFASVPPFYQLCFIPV

molecule: Cc1cc2ccccc2nc1SCC(=O)Nc1nc(-c2ccccc2)cs1
value: 1.12 µM (inconclusive)

// each molecule listed below needs its AC50
1. CCNc1ncc2nc(-c3ccc(Cl)cc3)c(=O)n(Cc3cccs3)c2n1
2. CCCCNC(=O)C1CC(=O)N(c2ccc(OC)cc2)C1c1ccc(OC)cc1 (stereo not given)
3. CCCC/C=C/C(NC(=O)C(C)(C)C)c1ccccc1 (stereo not given)
4. CCCc1nn2c(O)c(C(c3ccc(C)cc3)c3c(O)n4nc(CCC)sc4nc3=O)c(=O)nc2s1
5. O=C(Nc1cc(Sc2ccccn2)cc([N+](=O)[O-])c1)c1ccc([N+](=O)[O-])cc1
6. COc1ccc(C(=O)c2c[nH]c(C(=O)NCc3cccs3)c2)cc1

Result ::
1. 31.6 µM (inconclusive)
2. 25.1 µM (inconclusive)
3. 39.8 µM (inconclusive)
4. 12.6 µM (inconclusive)
5. 10 µM (inconclusive)
6. 0.251 µM (inconclusive)

Field: AC50. Fill in for each record below.
1. Cc1cc(-c2cc(C)c(O)c(C(C)(C)C)c2)cc(C(C)(C)C)c1O
2. O=C(Nc1ccccc1)N1CCCC2(CCN(C(=O)c3ccco3)CC2)C1
3. COC(=O)[C@@]1(Cc2ccc(OC)cc2)[C@H]2c3cc(C(=O)N4CCCC4)n(C[C@H](O)CO)c3C[C@H]2CN1C(=O)c1ccccc1

Result ::
["5.01 µM (inconclusive)", "25.1 µM (inconclusive)", "31.6 µM (inconclusive)"]

* * *

test_system: Corticotropin-releasing factor receptor 2/Corticotropin-releasing factor-binding protein (Homo sapiens, UniProt P24387+Q13324)
Sequence (Q13324 whole entry): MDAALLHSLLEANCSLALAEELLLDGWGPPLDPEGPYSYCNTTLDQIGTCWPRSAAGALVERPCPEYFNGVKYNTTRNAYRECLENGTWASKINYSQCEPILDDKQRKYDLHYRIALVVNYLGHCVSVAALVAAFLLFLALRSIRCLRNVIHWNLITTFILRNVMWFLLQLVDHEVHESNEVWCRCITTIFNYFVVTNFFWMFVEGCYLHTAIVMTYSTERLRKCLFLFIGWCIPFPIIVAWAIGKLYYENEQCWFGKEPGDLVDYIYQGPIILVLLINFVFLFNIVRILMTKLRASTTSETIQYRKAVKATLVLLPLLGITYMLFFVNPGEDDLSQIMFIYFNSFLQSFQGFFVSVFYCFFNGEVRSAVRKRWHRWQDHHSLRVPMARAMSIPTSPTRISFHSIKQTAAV
Sequence (P24387 whole entry): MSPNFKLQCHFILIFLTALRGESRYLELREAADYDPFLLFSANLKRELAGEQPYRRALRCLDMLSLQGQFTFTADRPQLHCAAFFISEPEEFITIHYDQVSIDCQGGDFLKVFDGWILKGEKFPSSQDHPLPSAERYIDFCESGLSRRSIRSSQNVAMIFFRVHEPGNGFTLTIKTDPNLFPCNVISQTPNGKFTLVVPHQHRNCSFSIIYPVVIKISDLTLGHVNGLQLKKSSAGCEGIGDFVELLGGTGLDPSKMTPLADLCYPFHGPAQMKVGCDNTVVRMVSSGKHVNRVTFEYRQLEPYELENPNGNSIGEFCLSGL
assay_procedure: activators of CRF receptor 2 with binding protein – uHTS hits, confirmation (AID 602473)
Type: functional
details: read-out: EC50_Mean
Active and inactive are the calls of the source.
measure_name: EC50

Illustrative cases are given below, each with its answer.
molecule: COc1ccc(-c2nn(-c3ccccc3)cc2/C=C(\C#N)S(=O)(=O)c2ccccc2)cc1OC
EC50: > 53 µM (inactive)
--
molecule: Cc1cc(N2CCOCC2)nc(N)n1
EC50: 10.4 µM (active)
--
molecule: CCC1CCCCN1CCCNC(=O)c1cn(C)c2ccc(S(=O)(=O)N(C)C3CCCCC3)cc2c1=O (stereo unspecified)
EC50: > 53 µM (inactive)
--
molecule: NC(=O)COC(=O)c1cccc(S(=O)(=O)N2CCCCC2)c1
EC50: > 53 µM (inactive)
--
molecule: COc1ccc(-c2ccc(C3C(C#N)=C(N)Oc4[nH]nc(C)c43)o2)cc1 (stereo unspecified)
EC50: 10.1 µM (active)

Please find the next molecule below.
Query :: Supply measured EC50 of "COCCN1CCN(C(=O)c2cc(COc3cc(C)ccc3C)on2)CC1" in your reply.
Result :: > 53 µM (inactive)
